Origin of the recorded values: patent US9187525B2

- targetDesc: T1, natriuretic peptide receptor-B (human)
- T1 chain: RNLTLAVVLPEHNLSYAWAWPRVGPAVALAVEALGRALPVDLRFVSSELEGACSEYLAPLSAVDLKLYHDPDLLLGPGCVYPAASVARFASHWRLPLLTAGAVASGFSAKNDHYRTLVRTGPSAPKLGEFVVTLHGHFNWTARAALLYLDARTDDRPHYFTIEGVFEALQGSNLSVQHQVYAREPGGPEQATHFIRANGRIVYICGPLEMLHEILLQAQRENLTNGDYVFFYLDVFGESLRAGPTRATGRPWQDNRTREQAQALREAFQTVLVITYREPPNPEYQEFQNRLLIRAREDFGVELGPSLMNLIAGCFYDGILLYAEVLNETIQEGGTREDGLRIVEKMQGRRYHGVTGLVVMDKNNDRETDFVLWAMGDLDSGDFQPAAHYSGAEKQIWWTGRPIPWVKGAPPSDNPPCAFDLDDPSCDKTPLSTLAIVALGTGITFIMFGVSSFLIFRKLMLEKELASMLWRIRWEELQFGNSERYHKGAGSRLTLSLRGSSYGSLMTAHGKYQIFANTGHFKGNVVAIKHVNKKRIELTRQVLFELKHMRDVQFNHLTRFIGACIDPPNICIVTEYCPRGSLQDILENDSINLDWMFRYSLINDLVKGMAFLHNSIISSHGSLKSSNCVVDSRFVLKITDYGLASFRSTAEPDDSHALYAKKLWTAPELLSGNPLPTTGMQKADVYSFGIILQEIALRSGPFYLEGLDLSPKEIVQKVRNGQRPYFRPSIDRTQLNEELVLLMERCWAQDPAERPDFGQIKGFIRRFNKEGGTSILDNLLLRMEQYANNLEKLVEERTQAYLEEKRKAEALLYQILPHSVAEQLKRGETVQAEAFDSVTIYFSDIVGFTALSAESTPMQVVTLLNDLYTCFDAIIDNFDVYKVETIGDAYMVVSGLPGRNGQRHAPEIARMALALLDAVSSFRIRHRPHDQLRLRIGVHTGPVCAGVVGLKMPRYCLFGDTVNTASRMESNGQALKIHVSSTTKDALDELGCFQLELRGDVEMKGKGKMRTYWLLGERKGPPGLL
- experimentNotes: cell-based or functional assay
Numbered stars: 1 amine (or outer) side, 2 acyl side, 3 side chain; on linkers, the order of the positions; unused ones are H or OH. Square brackets hold non-standard residues; d marks the D form. Primed or numbered codes have the meaning given here. Ends that are not written are not given here. * marks the point of attachment. Ebe = (R)-2-amino-3-(methylsulfanyl)propanoic acid, CSC[C@H](N[*:1])C(=O)[*:2]; Nhpr = (3-hydroxy-propylamino)acetic acid, O=C(CN(CCCO[*:3])[*:1])[*:2]; Pro(trans-4-NH2) = O=C([C@@H]1C[C@@H](N[*:3])CN1[*:1])[*:2]; Sni = (S)-nipecotic acid, O=C([C@H]1CCCN([*:1])C1)[*:2]; 6014 = (E)-dodec-2-enoic acid, CCCCCCCCC/C=C/C(=O)*; Hyp = O=C(O)[C@@H]1C[C@@H](O)CN1; NMeF = CN[C@@H](Cc1ccccc1)C(=O)O; pS = N[C@@H](COP(=O)(O)O)C(=O)O; Aoc(2) = CCCCCC[C@H](N)C(=O)O; NMeL = CN[C@@H](CC(C)C)C(=O)O; AR‑201‑48 = not defined here; lys(Me2) = not defined here; orn(Me2) = not defined here; Octanoyl = CCCCCCCC(=O)*; Pip′ = not defined here; Adx = not defined here; Che = not defined here; Hexanoyl = CCCCCC(=O)*; Oct = not defined here; Occ = octanoic acid
measure: EC50 group, cGMP in GTM-3 cells

Octanoyl-[dA][dA]FGLPLDRI-NH2 [JAL-0781_01]	≤ 5 µM
Octanoyl-[dA]FXL[Pro(trans-4-NH2)][NMeL]DRI-NH2 (not fully specified (some residues); printed as Occ-ala-Phe-dap(1464)-Leu-Tap-Nml-Asp-Arg-Ile-NH2) [JAL-1463]	≤ 1 µM
[Occ][dA][NMeF]GLP[NMeL]DRI-NH2 [JAL-0954]	≤ 5 µM
[AR‑201‑48][dL]L[Hyp][NMeL]DRI-NH2 (reading uncertain; also: printed as (AR-201-48)-leu-Leu-Hyp-Nml-Asp-Arg-Ile-) [JAL-1293]	≤ 15 µM
Octanoyl-[dA]F[dR]L[Hyp]PDRI-NH2 [JAL-1387]	≤ 15 µM
6014-FRL[Hyp][NMeL]DRI-NH2 (not fully specified (some residues); printed as 6014-Phe-arg-Leu-Hyp-Nml-Asp-Arg-Ile-NH2) [JAL-1237]	≤ 5 µM
Hexanoyl-[Ebe][dA]FGLKLDRI-NH2 [JAL-0541]	≤ 15 µM
Octanoyl-[Nhpr]FLL[Hyp][NMeL]DRI-NH2 (not fully specified (some residues); printed as Occ-Nhpr-Phe-leu-Leu-Hyp-Nml-Asp-Arg-Ile-NH2) [JAL-1798]	≤ 5 µM
H-[Adx][Aoc(2)][Sni]FLL[Hyp][NMeL]DRI-NH2 (not fully specified (residue 5); printed as H-Adx-Hgl-Sni-Phe-leu-Leu-Hyp-Nml-Asp-Arg-Ile-NH2; reading uncertain) [JAL-1808]	≤ 1 µM
[Oct][Sni]F[orn(Me2)]L[Hyp][NMeL]VP[Che] (reading uncertain; also: printed as Oct-Sni-Phe-orn(Me2)-Leu-Hyp-Nml-Val-Pro-Che) [JAL-1847]	≤ 15 µM
[Occ][Sni]F[orn(Me2)]L[Hyp][NMeL][pS]R[Che] (reading uncertain; also: printed as Occ-Sni-Phe-orn(Me2)-Leu-Hyp-Nml-Pse-Arg-Che) [JAL-1916]	≤ 15 µM
Octanoyl-[Sni]F[lys(Me2)]L[Hyp][NMeL]DRI-NH2 (reading uncertain; also: printed as Occ-Sni-Phe-lys(Me2)-Leu-Hyp-Nml-Asp-Arg-Ile-NH2) [JAL-1781]	≤ 5 µM
Octanoyl-AFLL[Hyp][NMeL]D[Pip′]I-NH2 (also: lower-case ala, leu: meaning not given here) [JAL-1438]	≤ 5 µM
